Test system: U-251
Assay Explanation: NCI tumour cell line growth inhibition, 48 h
Activity calls are given as the source filed them. No stated cut-off is given here; in the data, active = GI50 up to about 1.1 µM and inactive = higher. Residues, ends and D or L forms follow the SMILES beside them.
Assignment: determine reported GI50 for the given molecules.

>  <Molecule>
NC1CCCCC1

>  <Test Target>
U-251

>  <GI50>
313 µM (inactive)

$$$$

List the reported GI50 of each molecule below.
1. c1ccc2c(c1)-c1nc3ccccc3cc1C2N1CCOCC1 (stereo not given)
2. Cc1nc2ccc(S(=O)(=O)Nc3ccccc3Cl)cc2c(=O)n1NC(=O)CNc1ccccc1Cl
3. c1ccc([P+](CC[P+](c2ccccc2)(c2ccccc2)c2ccccc2)(c2ccccc2)c2ccccc2)cc1
4. Cc1nn(-c2ccccc2)c2nc3ccc(Cl)cc3c(-c3ccccc3)c12
5. O=C(O)C12C=CC(C1)c1ccccc12 (stereo not given)
6. COc1cc(OC)c(OC)cc1/C=C/c1nc2ccccc2s1
7. COc1ccccc1C(=O)NCC1CCCN2CCCCC12 (stereo not given)
8. O=C1CC(=O)NC(NN2C(=O)CSC2C(=O)c2ccco2)=N1 (stereo not given)

1. > 100 µM (inactive)
2. > 100 µM (inactive)
3. 2.94 µM (inactive)
4. > 100 µM (inactive)
5. > 100 µM (inactive)
6. > 100 µM (inactive)
7. > 100 µM (inactive)
8. > 100 µM (inactive)

Give its GI50 value. Item: CCC(C)C(NC(=O)C1CCCN1)C(=O)NC(C(=O)NCC(=O)NC(CC(N)=O)C(=O)NC(CC(C)C)C(=O)NC(CC(C)C)C(=O)NC(CCCCN)C(N)=O)C(C)C (stereo not given) (H-PIVGNLLK-NH2; configuration not given here)
> 75 µM (inactive)
